Target: T1, human insulin-like growth factor-I (IGF-I) (human, UniProt P05019 49-118)
T1 construct: also called IGF1; IGF-1
Assay: Biacore low-resolution screen, mAb captured, IGF-I injected
value.type: Kd

binder	value.type	measurement
mAb 7.251.3 (antibody, V domains shown, Fully human XenoMouse hybridoma mAb, lambda light chain (V1-13/JL2); also called ATCC PTA-7422) VH: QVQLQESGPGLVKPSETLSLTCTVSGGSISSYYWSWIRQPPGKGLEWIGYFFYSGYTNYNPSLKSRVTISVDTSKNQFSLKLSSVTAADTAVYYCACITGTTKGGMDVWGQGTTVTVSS VL: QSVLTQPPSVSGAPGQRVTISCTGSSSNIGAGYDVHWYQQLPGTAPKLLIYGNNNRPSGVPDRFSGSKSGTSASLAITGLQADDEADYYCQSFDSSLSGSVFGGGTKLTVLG	Kd	0.935 nM
mAb 7.34.1 (antibody, V domains shown, Fully human XenoMouse hybridoma mAb, lambda light chain (V1-13/JL2); also called ATCC PTA-7423) VH: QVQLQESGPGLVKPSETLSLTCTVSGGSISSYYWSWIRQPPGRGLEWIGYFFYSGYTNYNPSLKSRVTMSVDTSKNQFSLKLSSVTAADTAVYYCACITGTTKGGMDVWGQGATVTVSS VL: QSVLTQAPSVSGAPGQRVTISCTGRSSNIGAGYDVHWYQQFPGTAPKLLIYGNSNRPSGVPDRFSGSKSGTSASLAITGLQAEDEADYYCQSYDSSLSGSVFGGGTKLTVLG	Kd	0.615 nM
mAb 7.158.2 (antibody, V domains shown, Kappa light chain (L5/JK3); also called 7.158.1; 7_158_1) VH: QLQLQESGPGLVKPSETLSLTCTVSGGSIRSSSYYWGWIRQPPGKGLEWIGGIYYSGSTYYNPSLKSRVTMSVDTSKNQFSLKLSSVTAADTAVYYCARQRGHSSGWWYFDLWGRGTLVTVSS VL: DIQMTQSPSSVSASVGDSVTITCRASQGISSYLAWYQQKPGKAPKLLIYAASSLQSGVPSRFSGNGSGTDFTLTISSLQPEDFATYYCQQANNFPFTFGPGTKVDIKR	Kd	0.5 nM
mAb 7.159.2 (antibody, V domains shown, Fully human XenoMouse hybridoma mAb, lambda light chain (V1-19/JL2); Sister clones 7.159.1 and 7.159.2 are said to be identical; also called 7.159.1; 7_159_1) VH: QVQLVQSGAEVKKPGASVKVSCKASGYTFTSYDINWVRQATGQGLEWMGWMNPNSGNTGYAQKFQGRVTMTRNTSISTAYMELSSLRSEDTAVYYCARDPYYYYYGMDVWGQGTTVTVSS VL: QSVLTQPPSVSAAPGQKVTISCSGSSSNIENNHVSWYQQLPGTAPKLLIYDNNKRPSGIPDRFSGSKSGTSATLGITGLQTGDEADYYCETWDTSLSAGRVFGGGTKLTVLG	Kd	0.216 nM

Cited source: patent US20070196376A1
